Data origin: ChEMBL document CHEMBL3526074

assay-details: Drug metabolism in microsomes expressing CYP2B6.6 (unknown origin) assessed as enzyme-mediated 8-hydroxyefavirenz metabolite formation after 15 mins by HPLC/UV system in presence of Cyt b5 coexpression
Format: ADME
experimental-parameters: human, 0.25 h
endpoint-name: Km (µM)
Respond with the bare value in µM.

Any idea what Km was measured for O=C1Nc2ccc(Cl)cc2[C@@](C#CC2CC2)(C(F)(F)F)O1 ?
6.2

---

assay-details: Drug metabolism in human liver microsomes harboring CYP2B6*6/*6 genotype assessed as intrinsic clearance for CYP2B6 variant-mediated 8-hydroxyefavirenz metabolite formation measured per mg protein after 15 mins by LC/MS/MS analysis
Assay type: ADME
experimental-parameters: 0.25 h
endpoint-name: CLH

Any idea what CLH was measured for O=C1Nc2ccc(Cl)cc2[C@@](C#CC2CC2)(C(F)(F)F)O1 [EFAVIRENZ] ?
2.4 µL/min/mg
